target_or_system: T1, soluble human BLyS (human, UniProt Q9Y275 134-285)
T1 construct: also called hBLyS; human BAFF (BLyS)
test_description: blocking of biotinylated soluble hBLyS binding to immobilized mBR3
readout_name: IC50 (nM)

binder	numeric_value
8D12 IgG expressed in HEK293 cells (antibody, V domains shown, IgG from HEK293-FreeStyle cells; also called 8D12 (293)) VH: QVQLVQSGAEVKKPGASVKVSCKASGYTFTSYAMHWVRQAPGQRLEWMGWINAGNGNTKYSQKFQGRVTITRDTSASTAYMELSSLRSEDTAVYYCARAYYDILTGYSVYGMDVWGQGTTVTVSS VL: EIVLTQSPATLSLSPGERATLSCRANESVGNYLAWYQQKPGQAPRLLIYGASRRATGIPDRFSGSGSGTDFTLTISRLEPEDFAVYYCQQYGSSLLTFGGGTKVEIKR	10
8A12 IgG expressed in HEK293 cells (antibody, V domains shown, IgG from HEK293-FreeStyle cells) VH: QVQLVQSGGGLVQPGGSLRLSCAASGFTFSSYAMSWVRQAPGKGLEWVSAISGSGGSTYYADSVKGRFTISRDNSKNTLYLQMNSLRAEDTAVYYCAREGQGYDILTGYYTRGYYFDYWGQGTLVTVSS VL: QSALTQPASVSGSPGQSITISCTGTSSDVGGYNYVSWYQQLPGKAPKLMIYEVSKRPSGVPDRFSGSKSGNTASLTISGLQAEDEADYYCSSYAGSSSWVFGGGTKLTVLG	2.97
5B7 IgG expressed in HEK293 cells (antibody, V domains shown, also called 5B7 (293); 5B7-HEK293) VH: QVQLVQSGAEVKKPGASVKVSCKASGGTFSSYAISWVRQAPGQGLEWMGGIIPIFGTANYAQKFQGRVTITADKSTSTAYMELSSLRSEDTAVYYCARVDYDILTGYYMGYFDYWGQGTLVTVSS VL: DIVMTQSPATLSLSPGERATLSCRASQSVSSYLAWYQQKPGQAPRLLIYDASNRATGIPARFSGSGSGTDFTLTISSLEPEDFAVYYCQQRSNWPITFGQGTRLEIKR	0.43
